procedure text: Oral bioavailability in dog at 1 mg/kg
Type: ADME, organism-based, Canis lupus familiaris
condition context: in vivo
test readout: bioavailability (%)

smiles input: COc1ccc2nc(C(F)(F)F)c3c(c2c1)CC[C@]1(C[C@H]2C(=O)N[C@]4(C(=O)NS(=O)(=O)C5(C)CC5)C[C@H]4/C=C\CCCCC[C@H](NC(=O)OCC(C)C)C(=O)N2C1)O3
readout unit: %
measurement: 17

---

Test system: Hepatitis C virus
procedure text: Antiviral activity against HCV genotype 1a infected in human HuH7 cells assessed as inhibition of viral replication after 72 hrs by RT-PCR method
Format: functional, organism-based, Hepacivirus hominis
condition context: subtype 1a, Huh-7, 72 h
Recorded EC50 by entry

compound: C=C[C@@H]1C[C@]1(NC(=O)[C@@H]1C[C@@H]2CN1C(=O)[C@H](C(C)(C)C)NC(=O)O[C@@H]1C[C@H]1CCCCCc1nc3ccc(OC)cc3nc1O2)C(=O)NS(=O)(=O)C1CC1 [GRAZOPREVIR ANHYDROUS]
tested target: Hepatitis C virus
EC50: 0.3 nM

compound: COc1ccc2nc(C(F)(F)F)c3c(c2c1)CC[C@]1(C[C@H]2C(=O)N[C@]4(C(=O)NS(=O)(=O)C5(C)CC5)C[C@H]4/C=C\CCCCC[C@H](NC(=O)OCC(C)C)C(=O)N2C1)O3
tested target: Hepatitis C virus
EC50: 0.7 nM
